Test system: RXF 393 renal
Experiment: NCI-60 one-dose screen, 48 h
Details: 10 µM unless noted
Compounds without any hit were thinned out: in the full panel of roughly 83,000, 20% have a hit. Active and inactive are the calls of the source. How the source made its calls: active means growth percent below 10; inactive means the rest.
Outcomes: active, inactive

>>> assigned_label("Cc1c(C(=O)NNC(=O)c2ccc(Cl)cc2)nnn1-c1ccc(Br)cc1")
"inactive"
>>> assigned_label("COc1cc2c3c(n(CCCN4CCC[C@@H]4CO)c(=O)c2cc1OC)-c1cc2c(cc1C3=O)OCO2")
"active"
>>> assigned_label("COc1cc(C2CC(c3cc(OC)c(OC)c(OC)c3)=NN2C(C)=O)ccc1OCc1ccccc1 (stereo unspecified)")
"inactive"
>>> assigned_label("Cc1ccccc1[C@H]1C(C(=O)c2ccc(Cl)cc2)C2(N[C@@H]1c1ccccc1)C(=O)Nc1ccc(Br)cc12 (stereo partly specified)")
"active"
>>> assigned_label("CC(=O)Oc1ccccc1C(=O)[Se]CC(=O)Nc1cccc(C(F)(F)F)c1")
"active"
>>> assigned_label("CN(C)c1nc(NCCNS(=O)(=O)c2ccc(C3=Nc4c(N)nc(N)nc4NC(c4ccccc4)C3)cc2)nc(Nc2ccc(F)cc2)n1 (stereo unspecified)")
"inactive"
>>> assigned_label("O=C(NNc1nc2cc(F)ccc2n2c(CN3CCCCC3)ccc12)c1cnccn1")
"active"
>>> assigned_label("COc1cc2c(c(OC)c1OC)C(=O)CC(c1cccc(NC(=O)c3cc(N)ccc3Cl)c1)O2 (stereo unspecified)")
"inactive"
>>> assigned_label("COc1ccc2[nH]c(O)c(N=NC(=O)Cn3c(-c4ccccc4)nc4cc(C)ccc43)c2c1")
"active"
>>> assigned_label("CC1(C)CC[C@]2(C(=O)O)CC[C@]3(C)C(=CCC4[C@@]5(C)C[C@@H](O)[C@@H]6OC(c7ccccc7Br)OC[C@@]6(C)C5CC[C@]43C)C2C1 (stereo partly specified)")
"inactive"
>>> assigned_label("CCCCOc1ccc(NC(=O)c2sc3nc(C)ccc3c2N)cc1")
"active"
>>> assigned_label("CSc1ccc(C(=O)Nc2ccc3nn(/C(C#N)=C/c4ccccn4)nc3c2)cc1")
"active"
>>> assigned_label("COc1c(F)ccc(C(=O)Nc2ccc3nc(NC(=O)C4CCCN(S(=O)(=O)c5cccc(Cl)c5)C4)sc3c2)c1F (stereo unspecified)")
"active"
>>> assigned_label("Cc1ccc([C@H]2C(C(=O)c3ccc(Cl)cc3)C3(N[C@@H]2c2ccccc2)C(=O)Nc2ccccc23)cc1 (stereo partly specified)")
"inactive"
>>> assigned_label("CCCCSc1nc(NCCc2c[nH]c3ccccc23)c(C#N)c(-c2ccc(F)cc2)n1")
"inactive"
>>> assigned_label("COc1ccc2[nH]cc(-c3nnc(N)nc3-c3c[nH]c4ncc(Br)cc34)c2c1")
"inactive"
